The measured values listed here are drawn from patent US20130129746A1.

- tested system: T1, Cynomolgus monkey Serum Albumin (Cynomolgus monkey, UniProt A2V9Z4 25-608)
- T1 construct: mature; purified protein on CM5 chips for BIAcore; also called CSA; cyno SA
- T1 sequence (A2V9Z4 25-608): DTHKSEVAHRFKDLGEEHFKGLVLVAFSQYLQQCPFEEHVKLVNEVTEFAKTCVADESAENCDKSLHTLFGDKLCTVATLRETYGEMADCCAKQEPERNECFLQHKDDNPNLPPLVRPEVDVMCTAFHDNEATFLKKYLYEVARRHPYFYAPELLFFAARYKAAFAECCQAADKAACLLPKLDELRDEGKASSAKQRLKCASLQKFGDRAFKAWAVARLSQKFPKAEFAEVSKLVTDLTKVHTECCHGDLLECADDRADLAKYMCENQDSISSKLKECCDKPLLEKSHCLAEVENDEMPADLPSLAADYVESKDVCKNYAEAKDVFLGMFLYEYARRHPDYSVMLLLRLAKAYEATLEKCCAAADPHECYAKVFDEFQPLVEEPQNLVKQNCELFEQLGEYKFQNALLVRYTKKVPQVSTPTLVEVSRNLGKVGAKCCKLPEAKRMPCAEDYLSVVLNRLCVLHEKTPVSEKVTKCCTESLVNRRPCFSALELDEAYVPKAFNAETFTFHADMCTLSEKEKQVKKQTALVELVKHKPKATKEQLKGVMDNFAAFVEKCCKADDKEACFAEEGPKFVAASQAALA
- experimental protocol: BIAcore SPR;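 also: purified dAbs run at 1 µM, 500 nM and 50 nM over human, cynomolgus, mouse and rat serum albumin in BIAcore binding measurements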
Define the label as true (1) when koff is strictly less than 0.1 s⁻¹ and as false (0) in all remaining cases.

Consider the binder DOM7h-11 (other) VL: DIQMTQSPSSLSASVGDRVTITCRASRPIGTTLSWYQQKPGKAPKLLIWFGSRLQSGVPSRFSGSGSGTDFTLTISSLQPEDFATYYCAQAGTHPTTFGQGTKVEIKR . Is its koff strictly less than 0.1 s⁻¹? false (0)

Input DOM7h-11-15 (other) VL: DIQMTQSPSSLSASVGDRVTITCRASRPIGTMLSWYQQKPGKAPKLLILAFSRLQSGVPSRFSGSGSGTDFTLTISSLQPEDFATYYCAQAGTHPTTFGQGTKVEIKR ; condition: koff strictly below 0.1 s⁻¹. Does it hold? true (1)

Hello, I'm reviewing records and need to know if koff of DOM7h-14-19 (other, Vk dAb (AlbudAb)) VL: DIQMTQSPSSLSASVGDRVTISCRASQWIGSQLSWYQQKPGEAPKLLIMWRSSLQSGVPSRFSGSGSGTDFTLTISSLQPEDFATYYCAQGAALPRTFGQGTKVEIKR is below 0.1 s⁻¹. Could you check? false (0)

In plain terms, does DOM7h-11-3 (other) VL: DIQMTQSPSSLSASVGDRVTITCRASRPIGTTLSWYQQKPGKAPKLLILWNSRLQSGVPSRFSGSGSGTDFTLTISSLQPEDFATYYCAQAGTHPTTFGQGTKVEIKR come in under 0.1 s⁻¹ for koff? true (1)

Bench note: check whether DOM7h-14-18 (other, Vk dAb (AlbudAb)) VL: DIQMTQSPSSLSASVGDRVTITCRASQWIGSQLSWYQQKPGKAPKLLIMWRSSLQSGVPSRFSGSGSGTDFTLTISSLQPEDFATYYCAQGLMKPMTFGQGTKVEIKR shows koff below 0.1 s⁻¹ false (0)

Item DOM7h-14-10 (other, Vk dAb (AlbudAb)) VL: DIQMTQSPSSLSASVGDRVTITCRASQWIGSQLSWYQQKPGKAPKLLIMWRSSLQSGVPSRFSGSGSGTDFTLTISSLQPEDFATYYCAQGLRHPKTFGQGTKVEIKR : koff beneath 0.1 s⁻¹, strictly? true (1)

Answer whether the binder DOM7h-14 (other, Vk dAb (AlbudAb)) VL: DIQMTQSPSSLSASVGDRVTITCRASQWIGSQLSWYQQKPGKAPKLLIMWRSSLQSGVPSRFSGSGSGTDFTLTISSLQPEDFATYYCAQGAALPRTFGQGTKVEIKR has koff strictly less than 0.1 s⁻¹ true (1)

I'd appreciate it if you could check whether DOM7h-11-18 (other) VL: DIQMTQSPSSLSASVGDRVTITCRASRPIGTMLSWYQQKPGKAPKLLIWFGSRLQSGVPSRFSGSGSGTDFTLTISSLQPEDFATYHCAQAGTHPTTFGQGTKVEIKR has koff smaller than 0.1 s⁻¹. false (0)
